Recorded IC50 values for a group of molecules are listed next.
molecular target: human KEAP1 (N-term, residues 321-609) (Homo sapiens); assay: biochemical;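 also: fluorescence polarization competition assay of Kelch domain binding to NRF2, 12-point 1:3 dilution series from 10 µM, read after 1 h at room temperature, floor 10 nM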
Sequence (Q14145 321-609): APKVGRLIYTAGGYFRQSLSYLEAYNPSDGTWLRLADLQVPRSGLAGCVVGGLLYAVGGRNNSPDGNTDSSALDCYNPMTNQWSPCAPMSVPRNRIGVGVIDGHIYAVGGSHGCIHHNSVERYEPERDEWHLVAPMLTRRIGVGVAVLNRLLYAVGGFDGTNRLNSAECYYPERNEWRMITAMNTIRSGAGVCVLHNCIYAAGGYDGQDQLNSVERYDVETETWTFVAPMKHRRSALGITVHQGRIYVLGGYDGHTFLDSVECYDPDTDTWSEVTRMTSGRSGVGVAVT

molecule: CC(C)c1nc(COc2ccc(Br)c3c2[C@@H](CN2CCCC2=O)N(C(=O)[C@@H]2CCCC[C@@H]2C(=O)O)CC3)no1 [Example 66]
IC50 / nM: 5.7
//
molecule: Cc1nnc(COc2ccc(Cl)c3c2[C@@H](CN2CC4(CC4)CC2=O)N(C(=O)[C@@H]2CCCC[C@]2(C)C(=O)O)CC3)n1C [Example 179]
IC50 / nM: 5.3
//
molecule: O=C(O)[C@H]1CCCC[C@H]1C(=O)N1CCc2c(Cl)ccc(OCc3cccnn3)c2[C@H]1CN1CCCC1=O [Example 88]
IC50 / nM: 11
